Reference for the values: ChEMBL document CHEMBL1125260

assayed target: Glutamate receptor ionotropic, kainate
assay: In vitro binding affinity at Ionotropic glutamate receptor ionotropic kainate in rat brain membrane using [3H]kainate as radioligand
Type: cell membranes
Reported IC50 values for a set of compounds

>>> df
                                   compound  measure  data_value
0  COc1ccc(CC(C)NCCCc2ccccc2)cc1 (configuration not stated)     IC50     > 10 µM

// next item, IC50 requested
Could you share which IC50 value was measured for CC(Cc1ccc(I)cc1)NCCCc1ccccc1 (configuration not stated) ?
> 10 µM

* * *

assayed target: Glutamate receptor ionotropic, AMPA (Rattus norvegicus, UniProt P19490+P19491+P19492+P19493)
assay: In vitro binding affinity at quisqualate binding site of quisqualate/AMPA glutamate receptors in rat brain membrane using [3H]AMPA as radioligand
Assay type: cell membranes
pIC50: −log10 of the molar value.
measure: pIC50

Could you share which pIC50 value was measured for COc1ccc(CC(C)NCCCc2ccccc2)cc1 (stereo unspecified) ?
< 5.00

* * *

assayed target: D(2) dopamine receptor (Rattus norvegicus, UniProt P61169)
Sequence (P61169 whole entry): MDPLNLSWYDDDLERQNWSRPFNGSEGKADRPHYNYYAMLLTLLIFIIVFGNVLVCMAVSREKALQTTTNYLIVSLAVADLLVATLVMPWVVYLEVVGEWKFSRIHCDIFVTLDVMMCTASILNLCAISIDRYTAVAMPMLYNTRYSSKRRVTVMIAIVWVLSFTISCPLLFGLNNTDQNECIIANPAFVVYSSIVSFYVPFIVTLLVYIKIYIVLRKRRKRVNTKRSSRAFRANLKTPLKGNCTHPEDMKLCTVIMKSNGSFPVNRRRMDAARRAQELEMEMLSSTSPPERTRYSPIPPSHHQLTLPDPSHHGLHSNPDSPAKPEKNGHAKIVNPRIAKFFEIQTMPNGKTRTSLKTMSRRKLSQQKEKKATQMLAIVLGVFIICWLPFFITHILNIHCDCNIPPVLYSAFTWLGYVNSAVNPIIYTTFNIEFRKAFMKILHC
assay: In vitro binding affinity at Dopamine receptor D2 in rat striata using [3H]domperidone as radioligand
Reported pIC50 values for a set of compounds
Would you please state pIC50, meaning minus log10 of the concentration in mol/L, as a bare number?

>>> print(df.to_string())
                                   compound  measure  data_value
0             c1ccc(CCCNC2CCc3ccccc3CC2)cc1    pIC50        5.24
1  COc1ccc(CC(C)NCCCc2ccccc2)cc1 (centres undefined)    pIC50        5.03

Could you share which pIC50 value was measured for CC(Cc1ccc(I)cc1)NCCCc1ccccc1 (centres undefined) ?
5.42

Could you share which pIC50 value was measured for CC(Cc1ccc(Cl)c(Cl)c1)NCCCc1ccccc1 (centres undefined) ?
5.75
